B1: library; numbered along this chain (parent)
chain: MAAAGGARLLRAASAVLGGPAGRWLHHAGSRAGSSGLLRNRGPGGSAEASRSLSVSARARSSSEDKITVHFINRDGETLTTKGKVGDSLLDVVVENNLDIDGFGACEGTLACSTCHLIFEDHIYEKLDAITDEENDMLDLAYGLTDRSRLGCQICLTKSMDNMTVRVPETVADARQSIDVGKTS

# Variants of: B1
# ASSAY_OVERVIEW: scaled log2 fold change in cell abundance, elesclomol vs control (0 = silent mean, 1 = nonsense mean) (scaled log2 ratio); higher = higher viability under elesclomol (loss of FDX1 cuproptosis function);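 also: variant abundance is its share of total variant reads in each endpoint sample, from next-generation sequencing of the integrated ORF PCR-amplified out of genomic DNA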
# EXPERIMENTAL_SETUP: with ABC1 FDX1 KO; elesclomol 5 nM; glucose 10 mM; 14 days
REPORTED_PROPERTY: scaled log2 fold change

[
  {
    "CHANGE": "P168Q",
    "NUMERIC_VALUE": 0.259
  },
  {
    "CHANGE": "H116W",
    "NUMERIC_VALUE": -0.0982
  },
  {
    "CHANGE": "N40W",
    "NUMERIC_VALUE": -0.166
  },
  {
    "CHANGE": "G102E",
    "NUMERIC_VALUE": 0.427
  },
  {
    "CHANGE": "H122D",
    "NUMERIC_VALUE": -0.343
  },
  {
    "CHANGE": "G102W",
    "NUMERIC_VALUE": 0.225
  },
  {
    "CHANGE": "L127Q",
    "NUMERIC_VALUE": 0.446
  },
  {
    "CHANGE": "F71I",
    "NUMERIC_VALUE": -0.753
  },
  {
    "CHANGE": "E95H",
    "NUMERIC_VALUE": -0.106
  },
  {
    "CHANGE": "Y142P",
    "NUMERIC_VALUE": -1.37
  },
  {
    "CHANGE": "T80D",
    "NUMERIC_VALUE": -0.0431
  },
  {
    "CHANGE": "C106S",
    "NUMERIC_VALUE": 1.19
  },
  {
    "CHANGE": "R149F",
    "NUMERIC_VALUE": 0.872
  },
  {
    "CHANGE": "S54K",
    "NUMERIC_VALUE": -0.175
  },
  {
    "CHANGE": "A28C",
    "NUMERIC_VALUE": 0.232
  },
  {
    "CHANGE": "D132C",
    "NUMERIC_VALUE": -0.0894
  },
  {
    "CHANGE": "Y124H",
    "NUMERIC_VALUE": 0.148
  },
  {
    "CHANGE": "D173G",
    "NUMERIC_VALUE": 0.473
  },
  {
    "CHANGE": "L17P",
    "NUMERIC_VALUE": -0.107
  },
  {
    "CHANGE": "R74D",
    "NUMERIC_VALUE": 0.558
  },
  {
    "CHANGE": "L79M",
    "NUMERIC_VALUE": -0.15
  },
  {
    "CHANGE": "S35M",
    "NUMERIC_VALUE": 0.309
  },
  {
    "CHANGE": "L138N",
    "NUMERIC_VALUE": 0.767
  },
  {
    "CHANGE": "E120H",
    "NUMERIC_VALUE": -0.0176
  },
  {
    "CHANGE": "G19Q",
    "NUMERIC_VALUE": 0.00839
  },
  {
    "CHANGE": "G5E",
    "NUMERIC_VALUE": -0.0118
  },
  {
    "CHANGE": "A21I",
    "NUMERIC_VALUE": 0.0825
  },
  {
    "CHANGE": "H27F",
    "NUMERIC_VALUE": 0.196
  },
  {
    "CHANGE": "S54L",
    "NUMERIC_VALUE": -0.261
  },
  {
    "CHANGE": "R23N",
    "NUMERIC_VALUE": 0.598
  },
  {
    "CHANGE": "C152L",
    "NUMERIC_VALUE": 1.14
  },
  {
    "CHANGE": "D179S",
    "NUMERIC_VALUE": 0.558
  },
  {
    "CHANGE": "A129I",
    "NUMERIC_VALUE": 0.162
  },
  {
    "CHANGE": "L38G",
    "NUMERIC_VALUE": -0.74
  },
  {
    "CHANGE": "L89S",
    "NUMERIC_VALUE": 1.06
  },
  {
    "CHANGE": "M137Q",
    "NUMERIC_VALUE": 0.0471
  },
  {
    "CHANGE": "T170V",
    "NUMERIC_VALUE": -0.0936
  },
  {
    "CHANGE": "S159H",
    "NUMERIC_VALUE": -0.58
  },
  {
    "CHANGE": "E77V",
    "NUMERIC_VALUE": -0.145
  },
  {
    "CHANGE": "S14T",
    "NUMERIC_VALUE": -0.472
  },
  {
    "CHANGE": "R39Y",
    "NUMERIC_VALUE": 0.0455
  },
  {
    "CHANGE": "G29R",
    "NUMERIC_VALUE": -0.244
  },
  {
    "CHANGE": "N96P",
    "NUMERIC_VALUE": 0.423
  },
  {
    "CHANGE": "I123S",
    "NUMERIC_VALUE": 0.133
  },
  {
    "CHANGE": "E107H",
    "NUMERIC_VALUE": -0.0248
  },
  {
    "CHANGE": "I100W",
    "NUMERIC_VALUE": 0.297
  },
  {
    "CHANGE": "R11Q",
    "NUMERIC_VALUE": 0.24
  },
  {
    "CHANGE": "A2W",
    "NUMERIC_VALUE": -0.098
  },
  {
    "CHANGE": "G19R",
    "NUMERIC_VALUE": 0.483
  },
  {
    "CHANGE": "S35T",
    "NUMERIC_VALUE": -0.263
  },
  {
    "CHANGE": "T170K",
    "NUMERIC_VALUE": 0.0703
  },
  {
    "CHANGE": "L79F",
    "NUMERIC_VALUE": 0.0893
  },
  {
    "CHANGE": "T170D",
    "NUMERIC_VALUE": 0.239
  },
  {
    "CHANGE": "T78V",
    "NUMERIC_VALUE": 0.108
  },
  {
    "CHANGE": "G83Y",
    "NUMERIC_VALUE": 0.73
  },
  {
    "CHANGE": "T109H",
    "NUMERIC_VALUE": -0.34
  },
  {
    "CHANGE": "D101V",
    "NUMERIC_VALUE": 0.24
  },
  {
    "CHANGE": "E169R",
    "NUMERIC_VALUE": 0.0391
  },
  {
    "CHANGE": "I123M",
    "NUMERIC_VALUE": 0.264
  },
  {
    "CHANGE": "D87C",
    "NUMERIC_VALUE": -0.824
  },
  {
    "CHANGE": "G76F",
    "NUMERIC_VALUE": -0.264
  },
  {
    "CHANGE": "D91E",
    "NUMERIC_VALUE": -0.0305
  },
  {
    "CHANGE": "H27Y",
    "NUMERIC_VALUE": -0.231
  },
  {
    "CHANGE": "S56M",
    "NUMERIC_VALUE": -0.109
  },
  {
    "CHANGE": "G108I",
    "NUMERIC_VALUE": 1.05
  },
  {
    "CHANGE": "R58S",
    "NUMERIC_VALUE": 0.12
  },
  {
    "CHANGE": "M137P",
    "NUMERIC_VALUE": -0.0177
  },
  {
    "CHANGE": "G18R",
    "NUMERIC_VALUE": 0.241
  },
  {
    "CHANGE": "E77A",
    "NUMERIC_VALUE": 0.306
  },
  {
    "CHANGE": "L9W",
    "NUMERIC_VALUE": 0.434
  },
  {
    "CHANGE": "G6H",
    "NUMERIC_VALUE": 0.23
  },
  {
    "CHANGE": "L144V",
    "NUMERIC_VALUE": -0.402
  },
  {
    "CHANGE": "E134C",
    "NUMERIC_VALUE": 0.676
  },
  {
    "CHANGE": "I72T",
    "NUMERIC_VALUE": -0.0209
  },
  {
    "CHANGE": "K66H",
    "NUMERIC_VALUE": 0.0524
  },
  {
    "CHANGE": "R41C",
    "NUMERIC_VALUE": -0.0654
  }
]
